So I've got a bunch of molecules here, and I need their solubility values.
- experiment.notes: Compound solubility in water
Reply with the number and its unit after it.

(Q) What does the record list as solubility for Cc1ccc(C(=O)NC2CCCc3ccccc32)c2nccn12 (stereo not drawn) ?
(A) 0.2 µg/mL

(Q) Look up solubility: C#Cc1ccc(NC(=O)c2nccn3cc(C)nc23)cc1
(A) 0.8 µg/mL

(Q) Name the recorded solubility for Cc1cn2ccnc(C(=O)Nc3ccc4c(c3)CCC4)c2n1 .
(A) 1 µg/mL

(Q) GET /values?readout=solubility&item= Cc1ccc(C(=O)NC(C2CC2)C(F)(F)F)c2nccn12 (stereo not drawn)
(A) 9.9 µg/mL

(Q) I am curious: what solubility value has been reported for Cc1nc2c(C(=O)Nc3ccc4c(c3)CCC4)cccc2o1 ?
(A) 0.3 µg/mL

(Q) Tell me the measured solubility of CCCCCO[C@H]1CC[C@H](NC(=O)c2nccn3cc(C)nc23)CC1 , please.
(A) 8.4 µg/mL

###

- tested.target: glucocerebrosidase (Gcase) (Homo sapiens)
- Sequence (P04062 40-536): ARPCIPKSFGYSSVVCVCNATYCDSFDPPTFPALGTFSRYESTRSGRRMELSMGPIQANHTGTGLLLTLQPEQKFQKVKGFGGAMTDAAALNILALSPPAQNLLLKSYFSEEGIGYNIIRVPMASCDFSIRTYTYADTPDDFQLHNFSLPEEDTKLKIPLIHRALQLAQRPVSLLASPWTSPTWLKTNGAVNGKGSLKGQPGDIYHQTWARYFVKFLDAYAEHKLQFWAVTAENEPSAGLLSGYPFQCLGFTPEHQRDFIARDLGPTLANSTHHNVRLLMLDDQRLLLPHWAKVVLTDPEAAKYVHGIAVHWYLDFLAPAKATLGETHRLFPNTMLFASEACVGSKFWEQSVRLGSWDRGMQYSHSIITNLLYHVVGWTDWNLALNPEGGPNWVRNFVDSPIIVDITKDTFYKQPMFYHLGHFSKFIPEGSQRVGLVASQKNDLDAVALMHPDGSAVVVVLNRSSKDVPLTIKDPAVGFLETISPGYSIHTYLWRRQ
- experiment.notes: Glucocerebrosidase (Gcase) activation assay, 4-methylumbelliferyl-beta-D-glucopyranoside substrate, with saposin C
- Format: biochemical
- experimental.setup: 0.1 μM test compound; 10 nM GCase, 100 nM saposin C, pH 4.7; read-out: Percent Gcase Activation, 0.1 μM Test Compound
measurement.name: activation at 0.1 µM

(Q) Can you look up the measured activation at 0.1 µM of Cc1ccc(C(=O)NC(C2CC2)C(F)(F)F)c2nccn12 (stereo not shown) for me?
(A) 5 to 20%

(Q) What does the record list as activation at 0.1 µM for Cc1nc2c(C(=O)NC3CCCc4ccccc43)cccc2o1 (stereo not shown) ?
(A) < 5%

(Q) Looking for the measured activation at 0.1 µM of CCCCCO[C@H]1CC[C@H](NC(=O)c2ccc(C)n3ccnc23)CC1 , can you help?
(A) 5 to 20%

(Q) What value of measured activation at 0.1 µM is listed for Cc1ccc(C(=O)Nc2ccc3c(c2)CCC3)c2nccn12 ?
(A) < 5%

(Q) Would you kindly share the measured activation at 0.1 µM for Cc1ccc(C(=O)NC2CCCc3ccccc32)c2nccn12 (stereo not shown) ?
(A) 5 to 20%

(Q) Any idea what activation at 0.1 µM was measured for CCC(NC(=O)c1cccc2oc(C)nc12)c1ccccc1 (stereo not shown) ?
(A) < 5%

(Q) // activation at 0.1 µM lookup, key: CCC(NC(=O)c1nccn2cc(C)nc12)c1ccccc1 (stereo not shown)
(A) < 5%

(Q) Recorded activation at 0.1 µM for Cc1cn2ccnc(C(=O)NC3CCCc4ccccc43)c2n1 (stereo not shown) , please?
(A) < 5%

(Q) Which activation at 0.1 µM value belongs to CCCCCO[C@H]1CC[C@H](NC(=O)c2cccc3oc(C)nc23)CC1 ?
(A) < 5%

(Q) Given CCC(NC(=O)c1ccc(C)n2ccnc12)c1ccccc1 (stereo not shown) , state its recorded activation at 0.1 µM.
(A) 5 to 20%

(Q) Which activation at 0.1 µM is reported for this molecule? Cc1nc2c(C(=O)Nc3ccc4c(c3)CCC4)cccc2o1
(A) < 5%

(Q) Bench note: what activation at 0.1 µM did Cc1ccc(C(=O)N[C@@H](C)C2CC2)c2nccn12 show?
(A) < 5%

(Q) Given the entry Cc1cn2ccnc(C(=O)Nc3ccc4c(c3)CCC4)c2n1 , report its measured activation at 0.1 µM.
(A) < 5%

(Q) Data request, read-out activation at 0.1 µM, for C#Cc1ccc(NC(=O)c2nccn3cc(C)nc23)cc1
(A) < 5%

(Q) I'd like to know its activation at 0.1 µM. The molecule in question is Cc1ccc(C(=O)NC(C)(C)C2CC2)c2nccn12
(A) < 5%

(Q) Which activation at 0.1 µM value is on record for CCCCCO[C@H]1CC[C@H](NC(=O)c2nccn3cc(C)nc23)CC1 ?
(A) < 5%
